target: Ubiquitin-conjugating enzyme E2 N (Homo sapiens) (UniProt P61088); test: retested blockers of UBC13 chain formation – biochemical, TR-FRET, single concentration, confirmation (AID 488859); conditions: UBC13 polyubiquitination, at 10 µM, active compounds read high
Sequence (P61088 whole entry, looked up): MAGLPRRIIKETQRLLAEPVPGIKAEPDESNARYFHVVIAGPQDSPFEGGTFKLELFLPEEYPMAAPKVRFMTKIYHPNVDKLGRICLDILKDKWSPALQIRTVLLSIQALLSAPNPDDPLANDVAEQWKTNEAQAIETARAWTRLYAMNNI
Hit rate of the full screen: of about 1,400 compounds, about 970 (69%) were called active. About 5% were inconclusive and are not listed. The set was probably picked from earlier hits. A selection follows.
Reported inhibition by item:

- Compound: "CCOC(=O)[C@@H]1[C@H]2COc3cc(OC)ccc3[C@H]2N2C(=O)N(c3ccc(F)cc3)C(=O)[C@]12C"
  Target Desc: "Ubiquitin-conjugating enzyme E2 N (Homo sapiens) (UniProt P61088)"
  inhibition: "1.2% (inactive)"

(Q) Give the measured inhibition of O=c1cc(CO)oc(C(Nc2cccc(C(F)(F)F)c2)c2ccccn2)c1O (configuration not stated) .
(A) 88.9% (active)

(Q) Can you look up the measured inhibition of Cc1ccccc1C(=O)OC1OC(=O)C(Cl)=C1Nc1ccccc1 (configuration not stated) for me?
(A) 88.9% (active)

(Q) So what's the measured inhibition for this one? Cc1ccc(NC2=C(Cl)C(=O)OC2OC(=O)c2ccccc2C)cc1 (configuration not stated)
(A) 62% (active)

(Q) Reported inhibition for "NC[C@H](Cc1ccccc1)NCCc1cc(C(F)(F)F)cc(C(F)(F)F)c1" : what is it?
(A) 40.1% (inactive)

(Q) Report inhibition for "COc1ccnc2c1c(=O)n(Cc1cccc(F)c1)c(=O)n2C" please.
(A) 52.3% (active)

(Q) Which measured inhibition value corresponds to "CCCOc1ccc(Cl)cc1Nc1nc(NCCO)nc(N2CCCC2)n1" ?
(A) 16.5% (inactive)

(Q) inhibition for "Cc1ccc(-c2noc(CCC(=O)Nc3ccccc3N3CCN(C)CC3)n2)cc1" ?
(A) 92.8% (active)

(Q) Record request: inhibition value, item "CCCCN(C)CCCNC(=O)c1cc(-c2cccs2)nc2ccccc12"
(A) 45.7% (active)

(Q) For the compound shown here, "O=C(CCCCCn1c(=O)[nH]c2ccccc2c1=O)NCCc1c[nH]c2ccccc12" , give the reported inhibition.
(A) 67.3% (active)

(Q) Sample C=C1c2c(Cl)ccc(O)c2C(O)=C2C(=O)[C@]3(O)C(O)=C(C(N)=O)C(=O)[C@@H](N(C)C)[C@@H]3[C@@H](O)C12 (some centres not stated) — what was its inhibition?
(A) 50.8% (active)

(Q) For the compound shown here, "CCN(CC)CCNC(=O)c1ccc(NC(=O)c2cc(-c3ccncc3)nc3ccccc23)cc1" , give the reported inhibition.
(A) 91.5% (active)

(Q) Returns the measured inhibition for the input compound. Input: CN(C)CC(O)COc1ccc(C(C)(C)c2ccc(OCC(O)CN(C)C)cc2)cc1 (configuration not stated)
(A) 60.5% (active)

(Q) Form field: reported inhibition of "O=c1c2c(nc3n1CCCCC3)sc1c(O)cccc12"
(A) 104% (active)

(Q) Query (compound): "O=C(CCCCCN1C(=O)c2cccc3cccc(c23)C1=O)NCc1ccco1" ; field requested: inhibition
(A) 50.7% (active)

(Q) # query: inhibition of entry "c1ccc(C[C@H]2CNCCN2CCC23CC4CC(CC(C4)C2)C3)cc1"
(A) 42.5% (inactive)

(Q) Value lookup for inhibition; key = "COc1ccc(-n2nnnc2-c2nc3ccccc3s2)cc1"
(A) 51.1% (active)

(Q) Entry under review: COc1ccc(C(CNC(=O)c2cccc(NS(=O)(=O)c3ccc(C)c(F)c3)c2)N2CCCC2)cc1 (configuration not stated) . Reported inhibition?
(A) 94.5% (active)

(Q) Using the record for "CC1(C)Cc2ccccc2-c2[nH]c(=S)[nH]c(=O)c21" , report its inhibition.
(A) 26.2% (inactive)

(Q) Reported inhibition, compound "Cc1cccc(-n2cnc(C(=O)NNC(=S)Nc3ccccc3)c2)n1" : ____
(A) 107% (active)

Measured values drawn from PubChem BioAssay AID488859 for this set.
